Molecular target: human insulin receptor (Ins-R) (Homo sapiens, UniProt P06213)
Construct: encoding the amino acid region 919-1343 of the intra-cytoplasmic kinase domain of the human insulin receptor; made in house; host or cells: baculovirus (Bac-to-Bac)
Sequence (P06213 958-1382 limits assumed): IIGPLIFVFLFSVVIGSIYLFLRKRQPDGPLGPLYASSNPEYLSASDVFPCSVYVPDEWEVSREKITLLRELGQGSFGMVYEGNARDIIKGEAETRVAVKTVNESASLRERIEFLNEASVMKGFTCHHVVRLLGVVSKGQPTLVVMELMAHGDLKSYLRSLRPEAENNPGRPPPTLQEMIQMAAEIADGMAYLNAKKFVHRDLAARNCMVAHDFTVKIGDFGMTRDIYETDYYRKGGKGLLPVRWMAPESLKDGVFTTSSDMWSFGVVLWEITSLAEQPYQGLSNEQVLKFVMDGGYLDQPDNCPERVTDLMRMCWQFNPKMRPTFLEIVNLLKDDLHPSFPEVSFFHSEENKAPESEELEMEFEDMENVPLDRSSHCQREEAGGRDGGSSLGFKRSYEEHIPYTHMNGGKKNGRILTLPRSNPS
Experiment: Ins-R tyrosine kinase assay, GST-Ins-R
Format: biochemical
Conditions: Table 5; read-out: Ins-R, IC50 class
Provide the reported IC50 of each item.

Reported IC50 for "Cc1nc2c(-c3cccc(N4CCN(C)CC4)c3)cnn2c(N)c1-c1cccc(Cl)c1" : what is it?
1 to 10 µM

Try this molecule next: "Cc1nc2c(-c3cccc(N4CCN(CCO)CC4)c3)cnn2c(N)c1-c1cccc(Cl)c1"
> 10 µM

Try this molecule next: "COc1cc(N2CCN(C)CC2)ccc1-c1cnn2c(N)c(-c3cccc(O)c3)cnc12"
1 to 10 µM

Try this molecule next: "Cc1nc2c(-c3ccc(N4CCN(C)CC4)cc3)cnn2c(N)c1-c1ccc(F)c(Cl)c1"
> 10 µM

Try this molecule next: "COc1ccc(-c2cnn3c(N)c(-c4cccc(Cl)c4)c(C)nc23)cc1"
> 10 µM

Try this molecule next: "Cc1nc2c(-c3ccc(N4CCN(C)CC4)cc3)cnn2c(N)c1-c1cccc(Cl)c1"
> 10 µM

Try this molecule next: "Cc1nc2c(-c3cccc(N4CCN(C)CC4)c3)cnn2c(N)c1-c1ccc(F)cc1"
> 10 µM

---

Provide the reported pIC50 of each item.
Target: human VEGF-R2 receptor (KDR) (Homo sapiens, UniProt P35968)
Construct: expressed in transfected cells; host or cells: CHO cells
Sequence (P35968 20-1356): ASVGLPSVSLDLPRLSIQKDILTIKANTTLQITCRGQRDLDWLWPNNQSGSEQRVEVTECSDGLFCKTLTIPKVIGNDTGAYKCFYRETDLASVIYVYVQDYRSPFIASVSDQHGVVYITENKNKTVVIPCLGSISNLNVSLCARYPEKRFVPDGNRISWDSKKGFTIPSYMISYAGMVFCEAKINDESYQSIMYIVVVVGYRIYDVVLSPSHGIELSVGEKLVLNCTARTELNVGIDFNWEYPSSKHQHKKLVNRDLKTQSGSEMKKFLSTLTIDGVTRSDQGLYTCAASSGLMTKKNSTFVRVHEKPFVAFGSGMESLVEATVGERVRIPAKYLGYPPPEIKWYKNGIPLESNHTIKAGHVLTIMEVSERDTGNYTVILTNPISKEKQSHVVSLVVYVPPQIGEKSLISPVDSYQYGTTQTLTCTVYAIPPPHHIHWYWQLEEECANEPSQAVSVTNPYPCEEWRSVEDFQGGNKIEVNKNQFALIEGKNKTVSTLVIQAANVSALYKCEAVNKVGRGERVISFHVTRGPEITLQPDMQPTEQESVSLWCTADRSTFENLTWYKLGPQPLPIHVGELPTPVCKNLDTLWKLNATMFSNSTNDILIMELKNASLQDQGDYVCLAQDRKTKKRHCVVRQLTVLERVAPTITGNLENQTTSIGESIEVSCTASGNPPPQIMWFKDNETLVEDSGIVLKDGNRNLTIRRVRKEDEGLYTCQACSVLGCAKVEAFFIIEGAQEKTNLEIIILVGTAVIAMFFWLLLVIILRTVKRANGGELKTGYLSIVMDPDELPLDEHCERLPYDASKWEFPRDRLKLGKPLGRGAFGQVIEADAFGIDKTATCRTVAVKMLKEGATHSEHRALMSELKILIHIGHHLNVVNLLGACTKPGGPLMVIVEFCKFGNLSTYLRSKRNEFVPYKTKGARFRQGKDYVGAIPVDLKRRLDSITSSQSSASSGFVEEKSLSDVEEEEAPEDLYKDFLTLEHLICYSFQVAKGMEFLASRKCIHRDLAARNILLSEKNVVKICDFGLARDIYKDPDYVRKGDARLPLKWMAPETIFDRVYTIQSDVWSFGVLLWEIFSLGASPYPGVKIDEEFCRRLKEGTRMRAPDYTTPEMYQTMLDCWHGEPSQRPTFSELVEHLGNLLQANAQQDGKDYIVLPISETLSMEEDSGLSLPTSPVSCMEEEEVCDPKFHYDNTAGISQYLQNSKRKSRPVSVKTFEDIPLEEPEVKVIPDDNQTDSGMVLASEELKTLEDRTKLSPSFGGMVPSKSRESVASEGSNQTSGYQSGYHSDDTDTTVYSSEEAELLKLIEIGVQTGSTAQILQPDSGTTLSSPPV
Test: VEGF-induced KDR autophosphorylation in transfected CHO cells, sandwich ELISA
Type: cell-based
Conditions: Table 5; read-out: KDR, IC50 class
pIC50: −log10 of the molar value.

Reported pIC50 for "COc1ccc(-c2cnn3c(N)c(-c4cccc(Cl)c4)c(C)nc23)cc1OC" : what is it?
< 5.00

Try this compound next: "Cc1nc2c(-c3ccc(N4CCN(C)CC4)cc3)cnn2c(N)c1-c1ccc(F)c(Cl)c1"
< 5.00

Try this compound next: "COc1ccc(-c2cnn3c(N)c(-c4ccc(F)c(F)c4)c(C)nc23)cc1OC"
< 5.00

Try this compound next: "COc1ccc(-c2cnn3c(N)c(-c4ccc(F)c(Cl)c4)c(C)nc23)cc1OC"
< 5.00

Try this compound next: "CN1CCN(c2cccc(-c3cnn4c(N)c(Cc5cccc(Br)c5)cnc34)c2)CC1"
< 5.00

Try this compound next: "Cc1nc2c(-c3cccc(N4CCN(C)CC4)c3)cnn2c(N)c1-c1ccc(F)cc1"
5.00 to 6.00

Try this compound next: "COc1cc(N2CCN(C)CC2)ccc1-c1cnn2c(N)c(-c3cccc(Cl)c3)c(C)nc12"
5.00 to 6.00

Try this compound next: "Cc1nc2c(-c3cccc(N4CCN(CCO)CC4)c3)cnn2c(N)c1-c1ccc(F)cc1"
5.00 to 6.00

Try this compound next: "CN1CCN(c2cccc(-c3cnn4c(N)c(Cc5ccccc5)cnc34)c2)CC1"
5.00 to 6.00

Try this compound next: "Cc1nc2c(-c3cccc(N4CCC(N5CCCC5)CC4)c3)cnn2c(N)c1-c1cccc(Cl)c1"
< 5.00

Try this compound next: "Cc1nc2c(-c3ccc(N4CCN(C)CC4)cc3)cnn2c(N)c1-c1ccc(F)cc1"
5.00 to 6.00

Try this compound next: "Cc1nc2c(-c3cccc(N4CCN(CCO)CC4)c3)cnn2c(N)c1-c1cccc(Cl)c1"
5.00 to 6.00

Try this compound next: "COc1ccc(-c2cnn3c(N)c(-c4ccc(F)c(Cl)c4)c(C)nc23)cc1"
< 5.00

Try this compound next: "CN1CCN(c2cccc(-c3cnn4c(N)c(-c5cccc(Br)c5)cnc34)c2)CC1"
> 6.00

Try this compound next: "Cc1nc2c(-c3cccc(N4C[C@@H](C)O[C@@H](C)C4)c3)cnn2c(N)c1-c1cccc(Cl)c1"
5.00 to 6.00

Try this compound next: "Cc1nc2c(-c3cccc(N4CCN(CCO)CC4)c3)cnn2c(N)c1-c1ccc(F)c(Cl)c1"
5.00 to 6.00

Try this compound next: "Cc1nc2c(-c3cccc(N4CCN(C)CC4)c3)cnn2c(N)c1-c1cccc(Br)c1"
5.00 to 6.00

Try this compound next: "COc1ccc(-c2cnn3c(N)c(-c4ccc(F)cc4)c(C)nc23)cc1"
< 5.00

Try this compound next: "Cc1nc2c(-c3cccc(N4CCN(CCO)CC4)c3)cnn2c(N)c1-c1ccc(F)c(F)c1"
5.00 to 6.00

Try this compound next: "CN1CCN(c2cccc(-c3cnn4c(N)c(-c5ccccc5Cl)cnc34)c2)CC1"
> 6.00

Try this compound next: "CN1CCN(c2ccc(-c3cnn4c(N)c(-c5ccccc5Cl)cnc34)cc2)CC1"
> 6.00

Try this compound next: "COc1ccc(-c2cnn3c(N)c(-c4cccc(Cl)c4)c(C)nc23)cc1"
5.00 to 6.00

Try this compound next: "COc1ccc(-c2cnn3c(N)c(-c4cccc(Cl)c4)c(CF)nc23)cc1OC"
5.00 to 6.00

Try this compound next: Cc1nc2c(-c3cccc([N+]4([O-])CC[N+](C)([O-])CC4)c3)cnn2c(N)c1-c1ccc(F)cc1 (stereo not shown)
< 5.00

Try this compound next: "Cc1nc2c(-c3cccc(N4CCN(C)CC4)c3)cnn2c(N)c1-c1ccc(F)c(F)c1"
< 5.00

---

Target: HER-1 (Homo sapiens)
Sequence (P00533 25-1210, species assumed): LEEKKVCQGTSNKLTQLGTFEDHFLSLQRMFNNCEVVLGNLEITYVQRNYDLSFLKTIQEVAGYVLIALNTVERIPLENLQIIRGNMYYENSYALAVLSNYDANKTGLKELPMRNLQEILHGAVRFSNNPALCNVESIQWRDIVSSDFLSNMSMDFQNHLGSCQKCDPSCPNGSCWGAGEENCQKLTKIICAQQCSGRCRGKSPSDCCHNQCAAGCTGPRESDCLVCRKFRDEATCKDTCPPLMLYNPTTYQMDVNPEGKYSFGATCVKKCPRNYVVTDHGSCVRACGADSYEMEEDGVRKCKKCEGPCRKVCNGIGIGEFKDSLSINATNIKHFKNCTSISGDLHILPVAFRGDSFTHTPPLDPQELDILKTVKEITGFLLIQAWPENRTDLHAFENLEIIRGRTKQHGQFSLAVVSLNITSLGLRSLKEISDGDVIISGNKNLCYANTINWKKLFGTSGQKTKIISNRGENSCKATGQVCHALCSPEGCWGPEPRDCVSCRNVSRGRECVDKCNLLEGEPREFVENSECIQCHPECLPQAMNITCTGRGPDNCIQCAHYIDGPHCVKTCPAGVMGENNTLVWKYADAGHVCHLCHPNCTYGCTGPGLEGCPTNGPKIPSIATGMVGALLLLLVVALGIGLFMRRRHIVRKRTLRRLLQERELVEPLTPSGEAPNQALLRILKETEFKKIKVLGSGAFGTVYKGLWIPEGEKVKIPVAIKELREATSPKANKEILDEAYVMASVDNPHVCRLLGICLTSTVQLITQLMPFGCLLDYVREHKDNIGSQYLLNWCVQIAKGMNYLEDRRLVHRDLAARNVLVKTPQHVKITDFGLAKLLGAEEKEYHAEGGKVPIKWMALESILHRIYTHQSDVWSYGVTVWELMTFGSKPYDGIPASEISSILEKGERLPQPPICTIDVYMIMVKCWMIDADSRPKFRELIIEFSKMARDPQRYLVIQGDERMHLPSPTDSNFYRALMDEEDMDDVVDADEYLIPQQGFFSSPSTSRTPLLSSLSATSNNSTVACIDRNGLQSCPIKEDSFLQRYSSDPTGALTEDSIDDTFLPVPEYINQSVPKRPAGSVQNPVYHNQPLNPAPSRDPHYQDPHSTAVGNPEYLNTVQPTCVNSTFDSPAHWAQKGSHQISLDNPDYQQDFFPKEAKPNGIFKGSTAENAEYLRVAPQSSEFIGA
MEASURE NAME: IC50

Reported IC50 for Cc1nc2c(-c3cccc(N4CCN(C5CCN(C)CC5)CC4)c3)cnn2c(N)c1-c1cccc(Cl)c1 [Example 81] : what is it?
> 10 µM

Try this compound next: Cc1nc2c(-c3ccc(N4CCN(C)CC4)cc3)cnn2c(N)c1-c1cccc(Cl)c1 [Example 73]
1 to 10 µM

Try this compound next: Cc1nc2c(-c3cccc(N4C[C@@H](C)O[C@@H](C)C4)c3)cnn2c(N)c1-c1cccc(Cl)c1 [Example 89]
> 10 µM

---

Provide the reported IC50 of each item.
Molecular target: human VEGF-R2 receptor (KDR) (Homo sapiens)
Construct: expressed in transfected cells; host or cells: CHO cells
Experiment: VEGF-induced KDR autophosphorylation in transfected CHO cells, sandwich ELISA
Format: cell-based
Details: Table 4; read-out: KDR, activity (IC50 for kinase inhibition)

Reported IC50 for "CN1CCN(c2ccc(-c3cnn4c(N)c(-c5cccc(O)c5)cnc34)cc2)CC1" : what is it?
< 10 µM

Try this compound next: "Nc1c(-c2cccc(O)c2)cnc2c(-c3cccnc3)cnn12"
< 10 µM

Try this compound next: "CN1CCN(c2cccc(-c3cnn4c(N)c(-c5cccc(O)c5)cnc34)c2)CC1"
< 10 µM

---

Record type: IC50 measurement. Applies to: UniProt:Q02763
Sequence (Q02763 824-1096 limits assumed, species assumed): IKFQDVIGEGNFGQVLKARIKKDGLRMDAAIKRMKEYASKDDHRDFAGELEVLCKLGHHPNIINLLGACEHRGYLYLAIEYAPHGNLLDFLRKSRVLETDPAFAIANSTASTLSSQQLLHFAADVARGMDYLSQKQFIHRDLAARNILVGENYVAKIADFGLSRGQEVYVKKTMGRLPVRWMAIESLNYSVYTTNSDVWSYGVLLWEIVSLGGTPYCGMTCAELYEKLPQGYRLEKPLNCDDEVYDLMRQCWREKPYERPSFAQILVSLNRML

Form field - read-out: IC50; system: UniProt:Q02763; submitted item: "Cc1nc2c(-c3cccc(N4CCN(CCO)CC4)c3)cnn2c(N)c1-c1cccc(Cl)c1"
1 to 10 µM

Try this molecule next: "Cc1nc2c(-c3cccc(N4CCN(C)CC4)c3)cnn2c(N)c1-c1ccc(F)c(F)c1"
1 to 10 µM

Try this molecule next: "Cc1nc2c(-c3cccc(N4CCC(N5CCCC5)CC4)c3)cnn2c(N)c1-c1ccc(F)cc1"
> 10 µM

Try this molecule next: "COc1ccc(-c2cnn3c(N)c(-c4cccc(Cl)c4)c(CF)nc23)cc1OC"
> 10 µM

---

Molecular target: human VEGF-R2 receptor (KDR) (Homo sapiens)
Construct: expressed in transfected cells; host or cells: CHO cells
Experiment: VEGF-induced KDR autophosphorylation in transfected CHO cells, sandwich ELISA
Assay type: cell-based
Conditions: Table 5; read-out: KDR, IC50 class
Method: The compounds to be tested are then diluted in culture medium (without FCS, with 0.1% bovine serum albumin) and added to the cells. (Controls comprise medium without test compounds). […] The lysates are then centrifuged to remove the cell nuclei, and the protein concentrations of the supernatants are determined using a commercial protein assay (BIORAD). […] The luminescence is measured in a Packard Top Count Microplate Scintillation Counter. […]
MEASURE NAME: IC50

Reported IC50 for "Cc1nc2c(-c3cccc(N4CCOCC4)c3)cnn2c(N)c1-c1cccc(Cl)c1" : what is it?
1 to 10 µM

Try this molecule next: "COc1cc(N2CCN(C)CC2)ccc1-c1cnn2c(N)c(-c3cccc(O)c3)cnc12"
< 1 µM

Try this molecule next: "Cc1nc2c(-c3ccc(N4CCN(C)CC4)cc3)cnn2c(N)c1-c1cccc(Cl)c1"
< 1 µM

Try this molecule next: "Cc1nc2c(-c3cccc(N4CCN(C)CC4)c3)cnn2c(N)c1-c1cccc(Cl)c1"
< 1 µM

Try this molecule next: "Cc1nc2c(-c3cccc(N4CCN(C5CCN(C)CC5)CC4)c3)cnn2c(N)c1-c1cccc(Cl)c1"
< 1 µM

Try this molecule next: "Cc1nc2c(-c3cccc(N4CCC(N5CCCC5)CC4)c3)cnn2c(N)c1-c1ccc(F)cc1"
> 10 µM

Try this molecule next: "Cc1nc2c(-c3cccc(N4CCN(C)CC4)c3)cnn2c(N)c1-c1ccc(F)c(Cl)c1"
> 10 µM

Try this molecule next: "Cc1nc2c(-c3cccc(N4CC[N+](C)([O-])CC4)c3)cnn2c(N)c1-c1ccc(F)cc1"
> 10 µM

Data provenance: patent US20090099167A1
